Numbers sourced from PubChem BioAssay.

Assay info: probe aWnt5a binding to arrayed compounds – biochemical, biotinylated probe, 635/667 nm fluorescence, primary screen (AID 1113);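 further: score merges 667 nm fluorescence intensity with signal-to-noise per printed feature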
Experimental parameters: small-molecule microarray, higher = more signal
Property measured: composite z-score
Please reply with the value in numeric form only.

{"Molecule": "NC(=O)NCC#Cc1ccc2c(c1)[C@]1(C(=O)N2)[C@H](c2ccccc2OCCO)N2[C@H](c3ccccc3)[C@H](c3ccccc3)OC(=O)[C@H]2[C@@H]1C(=O)NC[C@H](O)c1ccccc1", "composite z-score": -0.0981}
{"Molecule": "C=CCC(OC(C)=O)[C@@H]1[C@@H](N(Cc2ccc(-c3cccc(C(F)(F)F)c3)o2)C(=O)c2ccc(-c3ccccc3)cc2)c2cc(OCCCO)ccc2N1C(=O)Cc1ccc2ccccc2c1 (some centres not stated)", "composite z-score": -0.0981}
{"Molecule": "COc1ccccc1CN1C(=O)c2ccccc2[C@](Cc2ccccc2I)(C(=O)O)[C@@H]1c1ccc(CO)cc1", "composite z-score": -0.123}
{"Molecule": "CC(C)N1C(=O)c2ccccc2[C@@H](C(=O)NCCN2CCOCC2)[C@@H]1c1ccc(CO)cc1", "composite z-score": -0.256}
{"Molecule": "CC(C)c1ccc(NN2C(C(O)c3ccc(C#N)cc3)C=CC3C(=O)N(c4ccccc4)C(=O)C32)cc1 (configuration not stated)", "composite z-score": -0.0405}

Notebook: `CCOC(=O)C1=CC[C@@H](c2ccccc2)N(S(=O)(=O)c2ccc(C)cc2)[C@H]1c1ccccc1` , composite z-score read as 0.0037

Notebook: `COc1ccc([Si](C)(C)[C@H]2[C@H](CC(=O)N(CCO)Cc3ccccc3)O[C@@]3(C(=O)N(C)c4c(Br)cc(C)cc43)[C@@H]2C)cc1` , composite z-score read as -0.176

====

Tested on: Plasmodium falciparum Sir2 (PF13_0152, Sir2A)
Assay info: Plasmodium falciparum Sir2A binding compounds – biochemical, small-molecule microarray, 635 nm fluorescence, primary screen (AID 1098);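 further: score merges spot fluorescence intensity with its signal-to-noise ratio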
Experimental parameters: fluorescence 635 nm, higher = more signal
Kindly return fulfilled if reported composite z-score is no lower than 1; return not fulfilled if it is lower.

Request: Check this compound for composite z-score at or above 1: `COCCOC(=O)N1C(=O)[C@@]2(c3cc(C#CCC(C(=O)OC)C(=O)OC)ccc31)[C@H](c1ccc(OCCO)cc1)N1[C@H](c3ccccc3)[C@H](c3ccccc3)OC(=O)[C@H]1[C@@H]2C(=O)N1CCc2cc(OC)c(OC)cc2C1`
Response: not fulfilled

====

Below, each entry is listed with its recorded composite z-score.
Assay info: probe aNog binding to arrayed compounds – biochemical, biotinylated probe, 635/667 nm fluorescence, primary screen (AID 1115);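 further: probe is biotinylated aNog protein used at 0.15 µg/mL for 1 h at 4 C; z-score combines 667 nm fluorescence of each spot with its signal to noise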
Experimental parameters: small-molecule microarray, higher = more signal
Please reply with the value in numeric form only.

{"Molecule": "O=C1NC(=O)C2C1C=CC(C(O)c1ccco1)N2Nc1ccc(Cl)cc1Cl (stereo not drawn)", "composite z-score": -0.3}
{"Molecule": "CC[C@@H]1O[Si](C(C)C)(C(C)C)c2c1cc(-c1cc(C)c(OC)c(C)c1)nc2-c1ccc(Oc2ccccc2)cc1", "composite z-score": -0.103}

Okay, next one:
Notebook: `COc1ccc([Si](C)(C)[C@H]2[C@H](CC(=O)N3Cc4ccccc4C[C@H]3CO)O[C@@]3(C(=O)N(Cc4ccc(N5CCOC5=O)cc4)c4ccccc43)[C@@H]2C)cc1` , composite z-score read as -0.267

====

Assay info: COS7 lysate on small-molecule microarray, probe aHis, 635 nm (AID 1123);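 further: z-score combines 667nm fluorescence intensity with signal-to-noise per printed compound spot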
Experimental parameters: COS7 cell lysate, fluorescence, higher = more signal
Property measured: composite z-score

Illustrative cases are given below, each with its answer.
{"Molecule": "COCC(=C=CC[C@H](O)c1ccc(CO)o1)CCO", "composite z-score": 1.27}
{"Molecule": "O=C1N(CCS(=O)(=O)c2ccccc2)c2ccccc2[C@H]2OC(c3ccc(OCCCO)cc3)=N[C@@]12Cc1ccccc1", "composite z-score": 2.93}
{"Molecule": "C#CCN([C@@H](Cc1ccccc1)C(=O)OC)[C@@H](/C=C/C1CC1)[C@H](O)Cc1ccccc1", "composite z-score": -0.0769}
{"Molecule": "CN(C)C(=O)[C@@]1(Cc2ccccc2CN=[N+]=[N-])N=C(c2ccc(OCCCO)cc2)O[C@H]1c1ccccc1N=[N+]=[N-]", "composite z-score": 2.95}
{"Molecule": "CC[C@@H]1C=C(C(=O)O)[C@H](c2ccccc2)N1S(=O)(=O)c1ccc(C)cc1", "composite z-score": 2.24}

Notebook: `[N-]=[N+]=Nc1ccccc1C[C@@]1(C(=O)NCCN2CCOCC2)N=C(c2ccc(OCCCO)cc2)O[C@@H]1c1ccccc1N=[N+]=[N-]` , composite z-score read as 2.51

Notebook: `O=C1O[C@@H](c2ccccc2)[C@@H](c2ccccc2)N2[C@@H](c3ccc(O)cc3)[C@]3(C(=O)Nc4ccc(C#CCCO)cc43)[C@@H](C(=O)N3CCN(c4ncccn4)CC3)[C@H]12` , composite z-score read as 0.457

Notebook: `CC1=C2[C@@H](CCc3ccccc3)OB(O)C[C@@H]2[C@@H]2C(=O)N(C)C(=O)[C@@H]2C1` , composite z-score read as 0.0513

Notebook: `CCCCC(=C=CC[C@H](O)c1ccc(OCCO)cc1)CCO` , composite z-score read as 1.55

Notebook: CS(=O)(=O)CCOC(=O)C1=CC(c2ccc(CO)cc2)=CC(C2CC2)N(Cc2sc3ccccc3c2Cl)C=C1C(=O)OCCS(C)(=O)=O (stereo unspecified) , composite z-score read as 0.737

Notebook: `CCCC=C(CCC)[C@@H](NP(=O)(c1ccccc1)c1ccccc1)c1ccc(-c2ccccc2)cc1` , composite z-score read as 2.52

Notebook: `C=C(COC)/C(=C/C[C@H](OC(=O)c1ccncc1)c1ccccc1OCCO)c1cc(C(=O)OC)ccc1OC` , composite z-score read as 1.2

====

Assay info: basal CRE-LacZ reporter activity in PC12 – cell-based, unstimulated, primary screen (AID 1145)
Experimental parameters: no forskolin, luminescence, 4.5 h, higher = more signal, called active from +8 up or from −8 down
Categorize each record by its z-score using bottom = under -0.02, middle = from -0.02 up to 0.5, top = 0.5 and over

Request: Category of `COc1ccc([Si](C)(C)[C@H]2[C@H](CC(=O)N3Cc4ccccc4C[C@H]3CO)O[C@@]3(C(=O)N(Cc4ccc(N5CCOC5=O)cc4)c4ccccc43)[C@@H]2C)cc1` :
Response: top

Request: Category of `CCCNC(=O)[C@@]1(Sc2ccc(C)cc2)CC(=O)N(C2Cc3ccccc3C2)[C@@H]1c1ccc(CO)cc1I` :
Response: bottom

Request: Category of `CCOC(=O)C1=CC[C@@H](c2ccccc2)N(S(=O)(=O)c2ccc(C)cc2)[C@H]1c1ccccc1` :
Response: bottom

Request: Category of `COC(=O)[C@@H]1N=C(c2ccc(OCCCO)cc2)O[C@@H]1c1ccccc1` :
Response: bottom

====

Assay info: probe aLAP1 signal on lysate-treated microarray – cell lysate, small-molecule microarray, COS7 lysate, primary screen (AID 1124);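 further: lysate comes from COS7 cells expressing LAP1 and is applied at 0.3 µg/mL; score merges spot fluorescence near 667 nm with signal-to-noise over triplicate slides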
Experimental parameters: probe aLAP1, fluorescence, higher = more signal
Kindly return condition met if reported composite z-score is no lower than 0.5; return condition not met if it is lower.

Reference set, count: 3
{"Molecule": "Cc1ccc(F)cc1S(=O)(=O)N[C@@H]1CCN(Cc2ccc(Br)cc2)C1", "Assigned label": "condition not met"}
{"Molecule": "CO[C@H]1O[C@H](CO)[C@@H](OC(=O)Nc2ccc3c(c2)OCO3)[C@H](OC(=O)Nc2ccc3c(c2)OCO3)[C@@H]1OC(=O)Nc1ccc2c(c1)OCO2", "Assigned label": "condition met"}
{"Molecule": "COc1ccc([Si](C)(C)[C@@H]2[C@@H](CC(=O)N3Cc4ccccc4C[C@H]3CO)O[C@]3(C(=O)N(Cc4ccc(N5C(=O)c6cccc7cccc5c67)cc4)c4ccccc43)[C@H]2C)cc1", "Assigned label": "condition not met"}

Request: Check this molecule for composite z-score at or above 0.5: `COCCCNC(=O)[C@@H]1c2ccccc2C(=O)N(C(C)C)[C@H]1c1ccc(CO)cc1`
Response: condition not met

Request: Check this molecule for composite z-score at or above 0.5: CC(C)C(CO)N1C(=O)[C@@H]2C3C(=O)OCCC/C=C\[C@H]3OC23C=CCN(Cn2nnc4ccccc42)C(=O)[C@@H]13 (some centres undefined)
Response: condition met

Request: Check this molecule for composite z-score at or above 0.5: `C[N+](C)(C)CCCCCCNC(=O)[C@@H]1C[C@@H]2C(=O)N3CCC[C@H]3C(=O)N2[C@@H]1c1ccc(O)cc1`
Response: condition not met

Request: Check this molecule for composite z-score at or above 0.5: `C=C(COC)/C(=C/C[C@H](OC(=O)c1ccncc1)c1ccccc1OCCO)c1cc(C(=O)OC)ccc1OC`
Response: condition not met

Request: Check this molecule for composite z-score at or above 0.5: `COc1ccc([Si](C)(C)[C@@H]2[C@@H](CC(=O)N(CCO)Cc3ccccc3)O[C@]3(C(=O)N(Cc4cccc(N5CCCCC5=O)c4)c4ccccc43)[C@H]2C)cc1`
Response: condition not met
